Recorded values, source patent US20100150834A1.

% Binding by entry:
molecular target: EphB6 (receptor of Table 1); assay: EphB receptor specificity panel (% binding)

{"columns": ["binder", "% Binding"],
 "data": [
  ["WPPHWPRSLDYA (Panned on EphB2) [WPPHWPRSLDYA peptide (SEQ ID NO:17)]", "0%"],
  ["FSPQGPAARNFA (Panned on EphB4) [FSPQGPAARNFA peptide (SEQ ID NO:25)]", "11%"],
  ["EWLSPNLAPSVR (Panned on EphB1; Footnote e: biotinylated and non-biotinylated peptides gave the same IC50) [EWLSPNLAPSVR peptide (SEQ ID NO:1)]", "0%"],
  ["DHWRVSPYSLLY (Panned on EphB2) [DHWRVSPYSLLY peptide (SEQ ID NO:13)]", "1%"],
  ["THWKFQPWALVT (Panned on EphB1) [THWKFQPWALVT peptide (SEQ ID NO:5)]", "0%"],
  ["GPVERAWRPDLI (Panned on EphB4) [GPVERAWRPDLI peptide (SEQ ID NO:30)]", "3%"],
  ["TTLSQLPKSTWL (Panned on EphB1) [TTLSQLPKSTWL peptide (SEQ ID NO:2)]", "0%"],
  ["SHKFPGPPSWMS (Panned on EphB1) [SHKFPGPPSWMS peptide (SEQ ID NO:4)]", "0%"]
]}
